experiment: Prevention of the growth of algae in water by Compound 1; type: cell-based; conditions: algal aquarium, pH 6.8; start 6.14 mg per liter, day 7; read-out: Percent Total Potential Positive Chlorine Remaining
Measurement name: remaining at 168 h (%)
Write down the numeric answer in % and omit the unit.

Incoming: Name the recorded remaining at 168 h for CC1(C)C(=O)N(Cl)C(C)(C)N1Cl .
Outgoing: 49.5

* * *

assay: Laboratory stability in halogen demand-free water (DFW), iodometric titration; type: physicochemical; conditions: demand-free water, pH 9.5
Measurement name: remaining at 504 h (%)
Write down the numeric answer in % and omit the unit.

Incoming: Name the recorded remaining at 504 h for CC1(C)C(=O)N(Cl)C(C)(C)N1Cl [Compound 1] .
Outgoing: 82.6

Incoming: Name the recorded remaining at 504 h for CC1(C)C(=O)N(Cl)C(C)(C)N1Br [Compound 5] .
Outgoing: 70.8

* * *

List of remaining at 2 h values.
assay: Stability in synthetic halogen demand water (SDW); assay type: physicochemical; details: synthetic halogen demand water; SDW, 4° C., pH 9.5, 2.0 hrs; read-out: Percent Halogen Remaining
Write down the numeric answer in % and omit the unit.

* CC1(C)NC(=O)C(C)(C)N1Cl [Compound 3] | 95.4

We next turn to a different molecule, shown below.
Incoming: Name the recorded remaining at 2 h for CC1(C)C(=O)N(Cl)C(C)(C)N1Cl [Compound 1] .
Outgoing: 92.4

* * *

Experiment: Laboratory stability in halogen demand-free water (DFW), iodometric titration
Assay type: physicochemical
Conditions: demand-free water, pH 7
Protocol: The stability of 1,3-dichloro-2,2,5,5-tetramethylimidazolidin-4-one (Compound 1) in halogen demand-free water was determined at 22° C. and pH values of 4.5, 7.0, and 9.5, and the results were compared to those for free chlorine as supplied by calcium hypochlorite. […] Aliquots were withdrawn periodically (at least weekly), and the total positive chlorine remaining was determined in triplicate by standard iodometric titration. […]
Measurement name: remaining at 119.28 h (%)
Write down the numeric answer in % and omit the unit.

Incoming: Name the recorded remaining at 119.28 h for CC1(C)C(=O)N(Cl)C(C)(C)N1Br [Compound 5] .
Outgoing: 95.4

* * *

experiment: Laboratory stability in halogen demand-free water (DFW), iodometric titration; type: physicochemical; details: demand-free water, pH 7
Measurement name: remaining at 840 h (%)
Write down the numeric answer in % and omit the unit.

Incoming: Name the recorded remaining at 840 h for CC1(C)C(=O)N(Cl)C(C)(C)N1Br .
Outgoing: 17.5

Incoming: Name the recorded remaining at 840 h for CC1(C)C(=O)N(Cl)C(C)(C)N1Cl .
Outgoing: 86

* * *

List of remaining at 1008 h values.
assay: Laboratory stability in halogen demand-free water (DFW), iodometric titration; format: physicochemical; conditions: demand-free water, pH 9.5
Write down the numeric answer in % and omit the unit.

- CC1(C)C(=O)N(Cl)C(C)(C)N1Cl: 55.1

We next turn to a different molecule, shown below.
Incoming: Name the recorded remaining at 1008 h for CC1(C)C(=O)N(Cl)C(C)(C)N1Br .
Outgoing: 38.4

* * *

assay: Stability in synthetic halogen demand water (SDW); assay type: physicochemical; conditions: synthetic halogen demand water; SDW, 4° C., pH 9.5, 0.083 hrs; read-out: Percent Halogen Remaining
List of remaining at 0.083 h values.
Write down the numeric answer in % and omit the unit.

* CC1(C)NC(=O)C(C)(C)N1Cl | 99.2

Incoming: Name the recorded remaining at 0.083 h for CC1(C)C(=O)N(Cl)C(C)(C)N1Cl .
Outgoing: 98.8
